// values below are reported IC50
# Test system: T47D (PI3Kα-H1047R) cell line
# assay_comment: HTRF phospho-AKT(S473) cell assay in T47D cells
# Assay type: cell-based, human
# experimental_parameters: Homo sapiens; HTRF phospho-AKT(S473), T47D (PI3Kα-H1047R) cells, 2 hours compound incubation

A selection of reference data follows.
1. COc1ccc(N2C[C@@H]3C[C@H]2CN3c2nc3c([C@@H](C)Nc4ccc(Cl)nc4C(=O)NS(C)(=O)=O)cc(C)cc3c(=O)n2C)cn1	0.25 to 0.5 µM
2. COCCn1ncc2cc(-c3nc4c([C@@H](C)Nc5ccc(Cl)nc5C(=O)NS(C)(=O)=O)cc(C)cc4c(=O)n3C)ccc21	< 0.25 µM
3. Cc1cc([C@@H](C)Nc2ccc(Cl)nc2C(=O)NS(C)(=O)=O)c2nc(N3C[C@@H]4[C@H](C3)[C@H]4c3cc4n(n3)CCO4)n(C)c(=O)c2c1	< 0.25 µM

Ask: Specify reported IC50 for the molecule shown: `Cc1cc([C@@H](C)Nc2ccc(Cl)nc2C(=O)NS(C)(=O)=O)c2nc(N3C[C@@H]4[C@H](C3)[C@H]4c3ncn(C(C)C)n3)n(C)c(=O)c2c1`
Result: < 0.25 µM

Ask: Specify reported IC50 for the molecule shown: Cc1cc([C@@H](C)Nc2ccc(Cl)nc2C(=O)NS(C)(=O)=O)c2nc(N3CCC[C@H](c4cnc(C)cn4)C3)n(C)c(=O)c2c1 (relative stereo)
Result: 0.25 to 0.5 µM

Ask: Specify reported IC50 for the molecule shown: `Cc1cc([C@@H](C)Nc2ccc(Cl)nc2C(=O)NS(C)(=O)=O)c2nc(N3CC[C@H](Nc4ncc(F)cn4)C3)n(C)c(=O)c2c1`
Result: 0.25 to 0.5 µM

----------
# Test system: SKBR3 (PI3Kα-Wild Type) cell line
# assay_comment: HTRF phospho-AKT(S473) cell assay in SKBR3 cells
# Type: cell-based, human
# experimental_parameters: Homo sapiens, SK-BR-3; SKBR3 (PI3Kα-Wild Type) cells, HTRF phospho-AKT(S473), 2 hours compound incubation, PDGF-BB stimulated
// values below are reported IC50

A selection of reference data follows.
1. Cc1cc([C@@H](C)Nc2ccc(Cl)nc2C(=O)NS(C)(=O)=O)c2nc(N3Cc4cn([C@H](C)C(F)(F)F)nc4C3)n(C)c(=O)c2c1 (relative stereo)	1 to 5 µM
2. C[C@@H](Nc1ccc(Cl)nc1C(=O)NS(C)(=O)=O)c1cc(C2CC2)cc2c(=O)n(C)c(N3C[C@@H]4[C@H](C3)[C@H]4c3ccn(C)n3)nc12	1 to 5 µM
3. Cc1ccc(C2CCN(c3nc4c([C@@H](C)Nc5ccc(Cl)nc5C(=O)NS(C)(=O)=O)cc(C)cc4c(=O)n3C)CC2)nc1	≥ 5 µM
4. Cc1cc([C@@H](C)Nc2ccc(Cl)nc2C(=O)NS(C)(=O)=O)c2nc(N3CC4(C3)CC(F)(F)C4)n(C)c(=O)c2c1	1 to 5 µM
5. Cc1cc([C@@H](C)Nc2ccc(Cl)nc2C(=O)NS(C)(=O)=O)c2nc(N3CCc4c(cnn4CC(F)(F)F)C3)n(C)c(=O)c2c1	1 to 5 µM

Switching to the query record.
Ask: Specify reported IC50 for the compound shown: Cc1cc([C@H](C)Nc2ccccc2S(=O)(=O)NC(=O)C(F)F)c2nc(N3Cc4ccc(F)cc4C3)n(C)c(=O)c2c1 (single isomer, unassigned)
Result: ≥ 5 µM

----------
// values below are reported pIC50
# Test system: T47D (PI3Kα-H1047R) cell line
# assay_comment: HTRF phospho-AKT(S473) cell assay in T47D cells
# Format: cell-based, human
# experimental_parameters: Homo sapiens; HTRF phospho-AKT(S473), T47D (PI3Kα-H1047R) cells, 2 hours compound incubation
pIC50: −log10 of the molar value.

A selection of reference data follows.
1) Cc1cc([C@@H](C)Nc2ccc(Cl)nc2C(=O)NS(C)(=O)=O)c2nc(-c3ccc(C4(C#N)CC4)cc3)n(C)c(=O)c2c1 [Compound 773]	> 6.60
2) Cc1cc([C@@H](C)Nc2ccc(Cl)nc2C(=O)NS(C)(=O)=O)c2nc(N3CC[C@H](Oc4cnc(C)cn4)C3)n(C)c(=O)c2c1 [Compound 631]	> 6.60
3) CC(=O)N1CCN(c2cc(F)c(-c3nc4c([C@@H](C)Nc5ccc(Cl)nc5C(=O)NS(C)(=O)=O)cc(C)cc4c(=O)n3C)cc2F)CC1 [Compound 800]	> 6.60
4) Cc1cc([C@@H](C)Nc2ccc(Cl)nc2C(=O)NS(C)(=O)=O)c2nc(N3CC[C@H](Oc4ncc(F)cn4)C3)n(C)c(=O)c2c1 [Compound 537]	6.30 to 6.60

Ask: Specify reported pIC50 for the molecule shown: Cc1cc([C@@H](C)Nc2ccc(Cl)nc2C(=O)NS(C)(=O)=O)c2nc(N3C[C@@H]4[C@H](C3)[C@H]4c3ccnn3C3CC3)n(C)c(=O)c2c1 [Compound 460]
Result: > 6.60

Ask: Specify reported pIC50 for the molecule shown: Cc1cc([C@@H](C)Nc2ccc(Cl)nc2C(=O)NS(C)(=O)=O)c2nc(N3CCC(C)(c4cc[nH]n4)CC3)n(C)c(=O)c2c1 [Compound 552]
Result: 6.30 to 6.60

Ask: Specify reported pIC50 for the molecule shown: Cc1cc([C@@H](C)Nc2ccc(Cl)nc2C(=O)NS(C)(=O)=O)c2nc(N3C[C@@H]4[C@H](C3)[C@H]4n3cc(C)cn3)n(C)c(=O)c2c1 [Compound 491]
Result: 6.30 to 6.60

Ask: Specify reported pIC50 for the molecule shown: [2H]C([2H])([2H])n1ncc2cc(-c3nc4c([C@@H](C)Nc5ccc(Cl)nc5C(=O)NS(C)(=O)=O)cc(C)cc4c(=O)n3C)ccc21 [Compound 818]
Result: > 6.60

Ask: Specify reported pIC50 for the molecule shown: CCn1c(-c2ccc3nn(C)cc3c2)nc2c([C@@H](C)Nc3ccc(Cl)nc3C(=O)NS(C)(=O)=O)cc(C)cc2c1=O [Compound 812]
Result: > 6.60

Ask: Specify reported pIC50 for the molecule shown: Cc1cc([C@@H](C)Nc2ccc(Cl)nc2C(=O)NS(C)(=O)=O)c2nc(N3CC[C@@H](Oc4ccnnc4)C3)n(C)c(=O)c2c1 [Compound 710]
Result: 5.30 to 6.00

Ask: Specify reported pIC50 for the molecule shown: Cc1cc([C@@H](C)Nc2ccc(Cl)nc2C(=O)NS(C)(=O)=O)c2nc(N3CCC[C@@H](c4cnc(C)cn4)C3)n(C)c(=O)c2c1 (relative stereo) [Compound 586]
Result: 6.30 to 6.60

Ask: Specify reported pIC50 for the molecule shown: Cc1cc([C@@H](C)Nc2ccc(Cl)nc2C(=O)NS(C)(=O)=O)c2nc(N3CCC(c4nn(C)nc4C)CC3)n(C)c(=O)c2c1 [Compound 506]
Result: > 6.60

----------
# Tested on: T47D (PI3Kα-H1047R) cell line
# assay_comment: HTRF phospho-AKT(S473) cell assay in T47D cells
# Assay type: cell-based, human
# experimental_parameters: Homo sapiens; HTRF phospho-AKT(S473), T47D (PI3Kα-H1047R) cells, 2 hours compound incubation
pIC50: −log10 of the molar value.
readout_label: pIC50

1. Cc1cc([C@@H](C)Nc2ccc(Cl)nc2C(=O)NS(C)(=O)=O)c2nc(N3CCC(c4ncc(C)o4)CC3)n(C)c(=O)c2c1 [Compound 728]	6.30 to 6.60
2. Cc1cc([C@@H](C)Nc2ccc(Cl)nc2C(=O)NS(C)(=O)=O)c2nc(N3CCC(c4n[nH]c(C)c4F)CC3)n(C)c(=O)c2c1 [Compound 547]	6.30 to 6.60

Ask: Specify reported pIC50 for the compound shown: CCn1c(N2Cc3cnn(CC(F)(F)F)c3C2)nc2c([C@@H](C)Nc3ccc(Cl)nc3C(=O)NS(C)(=O)=O)cc(C)cc2c1=O [Compound 733]
Result: 6.00 to 6.30

Ask: Specify reported pIC50 for the compound shown: Cc1cc([C@@H](C)Nc2ccc(Cl)nc2C(=O)NS(C)(=O)=O)c2nc(N3C[C@@H]4[C@H](C3)[C@H]4c3cnc(C(F)F)nc3)n(C)c(=O)c2c1 [Compound 522]
Result: > 6.60

Ask: Specify reported pIC50 for the compound shown: Cc1cc([C@@H](C)Nc2ccc(Cl)nc2C(=O)NS(C)(=O)=O)c2nc(N3C[C@@H]4C(c5ncc(Cl)cn5)[C@@H]4C3)n(C)c(=O)c2c1 (some centres unmarked) [Compound 535]
Result: 6.30 to 6.60

Ask: Specify reported pIC50 for the compound shown: Cc1cc([C@@H](C)Nc2ccc(Cl)nc2C(=O)NS(C)(=O)=O)c2nc(N3C[C@@H]4[C@H](C3)[C@H]4c3nnc(C)s3)n(C)c(=O)c2c1 [Compound 598]
Result: > 6.60

Ask: Specify reported pIC50 for the compound shown: COc1cc(N2CCN(c3nc4c([C@@H](C)Nc5ccc(Cl)nc5C(=O)NS(C)(=O)=O)cc(C)cc4c(=O)n3C)CC2)ccn1 [Compound 554]
Result: > 6.60

Ask: Specify reported pIC50 for the compound shown: COc1cc([C@H]2[C@@H]3CN(c4nc5c([C@@H](C)Nc6ccc(Cl)nc6C(=O)NS(C)(=O)=O)cc(C)cc5c(=O)n4C)C[C@@H]32)c(F)cn1 [Compound 479]
Result: 6.30 to 6.60

Ask: Specify reported pIC50 for the compound shown: CC(=O)N1CCN(c2ccc(-c3nc4c([C@@H](C)Nc5ccc(Cl)nc5C(=O)NS(C)(=O)=O)cc(C)cc4c(=O)n3C)c(F)c2)CC1 [Compound 785]
Result: > 6.60

Ask: Specify reported pIC50 for the compound shown: Cc1cc([C@@H](C)Nc2ccc(Cl)nc2C(=O)NS(C)(=O)=O)c2nc(N3Cc4cnn(CC(F)(F)F)c4C3)n(C3CC3)c(=O)c2c1 [Compound 736]
Result: 6.00 to 6.30

Ask: Specify reported pIC50 for the compound shown: Cc1cc([C@@H](C)Nc2ccc(Cl)nc2C(=O)NS(C)(=O)=O)c2nc(N3CCC(c4ccnn4C(F)(F)F)CC3)n(C)c(=O)c2c1 [Compound 446]
Result: 6.30 to 6.60
